- Assayed target: human TRPM8 (Homo sapiens, UniProt Q7Z2W7)
- Construct: expressed in transfected cells; host or cells: Chinese hamster ovary (CHO) cells, T-REx tetracycline-inducible expression system (Invitrogen); co-transfected with pcDNA3.1 aequorin
- Sequence (Q7Z2W7 whole entry): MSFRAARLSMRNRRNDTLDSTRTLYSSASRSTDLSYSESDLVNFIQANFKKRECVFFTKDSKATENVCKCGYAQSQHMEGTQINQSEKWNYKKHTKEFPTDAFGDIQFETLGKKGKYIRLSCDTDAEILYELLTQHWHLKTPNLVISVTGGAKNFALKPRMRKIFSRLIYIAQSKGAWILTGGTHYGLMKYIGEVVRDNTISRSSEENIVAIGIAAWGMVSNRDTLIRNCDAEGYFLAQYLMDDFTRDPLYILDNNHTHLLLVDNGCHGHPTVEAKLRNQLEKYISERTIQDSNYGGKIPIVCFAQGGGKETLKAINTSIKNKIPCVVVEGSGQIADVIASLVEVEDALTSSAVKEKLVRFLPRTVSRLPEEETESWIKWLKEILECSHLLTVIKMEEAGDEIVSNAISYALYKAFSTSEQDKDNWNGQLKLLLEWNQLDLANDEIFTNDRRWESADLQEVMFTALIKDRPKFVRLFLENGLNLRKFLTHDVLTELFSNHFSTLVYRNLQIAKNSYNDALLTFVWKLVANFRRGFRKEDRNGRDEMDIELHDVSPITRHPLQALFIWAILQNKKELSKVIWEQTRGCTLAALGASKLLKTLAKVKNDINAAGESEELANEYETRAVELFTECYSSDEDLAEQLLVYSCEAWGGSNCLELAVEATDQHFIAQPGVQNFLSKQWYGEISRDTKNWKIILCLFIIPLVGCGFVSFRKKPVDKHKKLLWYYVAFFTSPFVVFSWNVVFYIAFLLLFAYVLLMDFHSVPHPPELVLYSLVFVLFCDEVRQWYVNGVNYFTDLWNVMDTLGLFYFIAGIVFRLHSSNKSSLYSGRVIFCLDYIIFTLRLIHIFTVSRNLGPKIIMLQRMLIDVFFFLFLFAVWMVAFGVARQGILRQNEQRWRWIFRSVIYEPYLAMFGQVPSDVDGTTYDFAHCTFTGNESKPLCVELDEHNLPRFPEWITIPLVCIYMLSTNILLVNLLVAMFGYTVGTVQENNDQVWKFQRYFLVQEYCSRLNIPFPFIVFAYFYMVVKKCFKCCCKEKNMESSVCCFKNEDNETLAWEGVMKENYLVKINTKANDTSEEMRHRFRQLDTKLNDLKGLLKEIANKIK
- Assay text: Luminescence readout assay for measuring intracellular calcium (aequorin, CHO cells expressing human TRPM8; icilin, L-menthol or cold activation)
- Assay type: cell-based
- Protocol conditions: CHO cells expressing human TRPM8, icilin activation (1 μM), aequorin luminescence; read-out: hTRPM8 IC50
- Method: Luminescence Readout Assay for Measuring Intracellular Calcium A stable Chinese hamster ovary cell line expressing human TRPM8 was generated using tetracycline inducible T-REx™ expression system from Invitrogen, Inc. (Carlsbad, Calif.). […] Twenty four hours before the assay, cells were seeded in 96-well plates and TRPM8 expression was induced with 0.5 μg/ml tetracycline. On the day of the assay, culture media was removed and cells were incubated with assay buffer […]
Structures can show the parent of a compound that is named as a salt.
Quick list: pIC50 per entry.
The quantity pIC50 is defined as the negative base-10 logarithm of the molar concentration.

- O=C(N[C@]1(c2ccc(OC(F)(F)F)cc2)CCOc2cccnc21)C1Cc2ccccc2O1 (stereo partly drawn) [Example 246, formate]: 7.03
- O=C(N[C@]1(c2ccc(OC(F)(F)F)cc2)CCOc2cccnc21)c1cccc(N2CCCC2=O)c1 [Example 277, formate]: 7.07

Attention now turns to another entry.
Q) What value of pIC50 has been recorded for this entry: "O=C(O)c1ccc(C(=O)N[C@]2(c3ccc(OC(F)(F)F)cc3F)CCOc3cccnc32)nc1"
A) 6.98
